Please go through the items and note down their solubility kinetic.
# details: buffer; pH 7.4; 200.0 µM
Numbers only, in µg/mL.

Bench note: what solubility kinetic did O=C(O)C(=O)O.c1ccc2c(OCCCN3CCCCCC3)cccc2c1 show?
32.8

Tell me the measured solubility kinetic of O=C(Nc1ccc2ccccc2c1)C(=O)C1C(=O)Nc2ccccc21 (stereo not given) , please.
3.7

Hi there! I need solubility kinetic for each item below, if you can.
1. CCCN(c1ccc(C)cc1)c1nc(=O)c2cccnc2s1
2. O=C(Cc1ccccc1)Nc1nc(-c2ccc(F)c(F)c2)cs1
3. Cc1nc(-c2ccc(-c3ccon3)s2)no1
4. O=C(Nc1ccc(Cl)c(NC(=O)c2cccs2)c1)c1ccco1
5. COc1ccc(NC(=O)COC(=O)CCc2ccc(S(=O)(=O)N3CCOCC3)cc2)c(OC)c1
6. CSc1ccccc1NC(=O)c1ccc([N+](=O)[O-])cc1

1: 3; 2: 0.4; 3: 16.6; 4: 37.4; 5: 11; 6: 15.9

Can you give me solubility kinetic for all of these, one by one?
1. Cc1ccc(-c2nc3ccccc3c(=O)n2O)cc1
2. O=C(c1ccccc1)C1NC1c1ccccc1 (stereo not given)
3. O=C(COc1ccccc1)Nc1ccccc1C(=O)NC1CC1
4. Cc1cccc(NS(=O)(=O)c2ccc(C(C)(C)C)cc2)n1

1. 24.1
2. 26.9
3. 6.4
4. 42.7

// each molecule listed below needs its solubility kinetic
1. O=C(OCC(=O)N1CCOCC1)c1ccccc1O
2. O=C(COC(=O)/C=C/c1cccc(Cl)c1)NC1CC1
3. OCC1(CC2CCCCO2)CCN(Cc2cccc(O)c2)CC1 (stereo not given)
4. OCCN1CCN(c2cc(C(F)(F)F)nc3c(F)cccc23)CC1

[29.8, 4.8, 47.3, 48.5]

---

# details: buffer; pH 7.4; 200.0 µM
Give measured solubility kinetic for each item. Keep answers brief.

Some molecules with recorded solubility kinetic:
Entry Cc1cc2ccccn2c1C(=O)Nc1cccc(Cl)c1 : reported solubility kinetic = ?
< 0.3 µg/mL

Returns the measured solubility kinetic for the input molecule. Input: Cc1ccc(C(C)C)c(OCC(O)CNC2CCCC2)c1.Cl (stereo unspecified)
> 49.2 µg/mL

Value lookup for solubility kinetic; key = N#Cc1cc2c([nH]c1=O)CCCC2
> 26.1 µg/mL

What does the record list as solubility kinetic for CCOC(=O)Cn1ccc(-c2ccccc2)c(C#N)c1=O ?
> 42.3 µg/mL

Give its solubility kinetic value. Item: Cc1ccc(CSCc2ccc(C(=O)NC3CC3)o2)cc1
> 45.2 µg/mL

Now take the following molecule into account.
// query solubility kinetic value for entry O=C1CSC(c2cccnc2)N1CC1CC1 (stereo unspecified)
> 35.1 µg/mL

---

# details: buffer; pH 7.4; 200.0 µM
I'd be grateful if you could share measured solubility kinetic for these entries.

Entry CCc1ccc(Nc2ncnc3nc[nH]c23)cc1 : reported solubility kinetic = ?
> 35.9 µg/mL

What does the data say about its solubility kinetic? Entry: Cc1cccc(NC(=O)CNC(=O)c2ccc3nc[nH]c3c2)c1C
> 48.4 µg/mL

Bench note: what solubility kinetic did CCOC(=O)c1c(NC(=S)N2CCOCC2)sc(C)c1C show?
< 0.4 µg/mL

Query: solubility kinetic; subject: OCC1OC(n2cnc3c(NC4CCCC4)ncnc32)C(O)C1O (stereo unspecified)
> 50.3 µg/mL

Value lookup for solubility kinetic; key = Cc1nn(CCCC(=O)O)c(C)c1[N+](=O)[O-]
> 34.1 µg/mL

Consider the record given below.
Please give the measured solubility kinetic for this compound: O=[N+]([O-])/C=C1/CCCCCN1
> 23.4 µg/mL

---

# details: buffer; pH 7.4; 200.0 µM
Bucketed by reported solubility kinetic, buckets being 0 (below 10 µg/mL), 1 (10 µg/mL to below 30 µg/mL), 2 (30 µg/mL or more)

Examples from the recorded data:
Which class holds CC1CC1C(=O)OCC(=O)Nc1ccc(S(=O)(=O)N2CCOCC2)cc1 (centres undefined) ?
2

Field: class (solubility kinetic) — entry: Clc1ccc(Cn2cnc3ccccc32)cc1
1

Lab note: which band did CCOc1cccc(NC(=O)c2cnccc2C(F)(F)F)c1 land in?
2

Which of the defined bands does the recorded solubility kinetic of C=CCn1c(NC(=O)c2ccco2)nc2ccccc21 sit within?
1

Consider Cc1ccc(CNC(=O)CCNC(=O)c2ccc([N+](=O)[O-])cc2)cc1 . To which solubility kinetic class does it belong?
2

New cases:
Classify this compound: Cn1nc(C(=O)NNC(=O)c2cccc(Cl)c2)ccc1=O
2

Category of CC1CCCC(NC(=O)COC(=O)c2cc(=O)[nH]c3ccccc23)C1C (centres undefined) :
0

Please classify: Cc1cc(C)c2c(N)c(C(=O)Nc3ccc(C)c(C)c3)sc2n1
0

Which category does the recorded solubility kinetic put Cc1cccc(NC(=S)NCCc2ccccn2)c1 in?
2

Categorize the following entry: C=CCn1c(O)c(Cc2ccc(OCC)cc2)c(=O)[nH]c1=O
2

---

# details: buffer; pH 7.4; 200.0 µM
attribute_measured: solubility kinetic (µg/mL)
One number for each entry, in µg/mL.

Recorded results for 4 compounds are shown here.
What value of solubility kinetic has been recorded for this entry: O=C(CNC(=O)c1ccc2c(c1)OCO2)NCc1cccs1
34.8

Endpoint output: solubility kinetic of COC(=O)c1sccc1NC(=O)Nc1cccc([N+](=O)[O-])c1 . Value?
5.7

# query: solubility kinetic of entry COC(=O)CSc1nc(NC#N)nc(NC(C)(C)C)n1
36.7

Any idea what its solubility kinetic is? The compound is CCOc1ccccc1/C=C(\C#N)C(=O)NC1CC1
31.3

Others:
Look up solubility kinetic for this compound: CCOc1ccc(N2C(=O)CC(NCc3ccc(S(N)(=O)=O)cc3)C2=O)cc1 (stereo unspecified)
48.7

---

For each record, write down the corresponding solubility kinetic.
# details: buffer; pH 7.4; 200.0 µM

Example entries and their recorded answers appear below.
For O=C(O)/C=C/C(=O)NCCc1cccc(Cl)c1 , what is its reported solubility kinetic?
> 38.1 µg/mL

Data request, read-out solubility kinetic, for CC(C)C[C@H](NC(=O)NCc1ccc(F)cc1)C(=O)O
> 42.3 µg/mL

Parameters: items (list). Returns: solubility kinetic for each item.
1. COc1cc2ccccc2cc1C(=O)Nc1ccc(C)cc1
2. COc1ccccc1CN1CCc2c([nH]c3ccccc23)C1
3. CCCN(CC1CC1)C(=O)CSc1ncnc2sccc12
4. CC1=C([N+](=O)[O-])C(c2ccccc2Cl)NC(=O)N1 (centres undefined)
5. Cc1nn(-c2ccccc2)c(-c2ccccc2[N+](=O)[O-])c1C(=O)O

2.3 µg/mL
33.1 µg/mL
> 48.2 µg/mL
> 40.2 µg/mL
> 48.5 µg/mL

Dear reader, for each entry below, please note its solubility kinetic.
1. Cc1ccc(C)c(NC(=O)CSc2c(C)n[nH]c2C)c1
2. CCCOC1CCCN(Cc2nc(-c3cnccn3)no2)C1 (centres undefined)
3. O=C(COC(=O)c1cc(Cl)ccc1[N+](=O)[O-])NC1CC1
4. CN1CCSc2ccc(C(=O)Nc3cccc(F)c3)cc21
5. Cn1c(O)c(C=Nc2cccc(C(F)(F)F)c2)c(=O)n(C)c1=O
6. CCCCCCCN1C2=NCCN2c2ccccc21.Cl

> 43.4 µg/mL
41.3 µg/mL
> 44.8 µg/mL
1.4 µg/mL
10.6 µg/mL
> 44.1 µg/mL

Could you tell me which solubility kinetic is on file for COc1ccc(S(=O)(=O)N2CCc3ccccc3C2)cc1C(=O)O ?
48.4 µg/mL

---

# details: buffer; pH 7.4; 200.0 µM
Provide the recorded solubility kinetic for the entries that follow.

// known answers, use as guide
Look up solubility kinetic for this compound: Cc1ccc(C(=O)N2CCCCC2C(=O)O)cc1S(=O)(=O)N1CCCCC1 (centres undefined)
> 0.0592 mg/mL

Returns the measured solubility kinetic for the input compound. Input: O=c1[nH]c2ccccc2[nH]c1=O
> 0.0243 mg/mL

What value of solubility kinetic has been reported for the following compound? O=S(=O)([O-])CCC[N+]1(CC#Cc2ccccc2)CCCCC1
> 0.0482 mg/mL

# input for lookup
Which solubility kinetic value belongs to COc1nc(-c2ccc(Cl)cc2Cl)nc2ccccc12 ?
< 0.0003 mg/mL

---

# details: buffer; pH 7.4; 200.0 µM
Output schema: class label derived from solubility kinetic. Mapping: range 1 = under 10 µg/mL, range 2 = from 10 µg/mL up to 40 µg/mL, range 3 = 40 µg/mL and over

Please review the following examples before continuing.
Category lookup for the molecule O=C(COC(=O)C1C2CC3OC(=O)C1C3C2)Nc1ccc(F)cc1 (stereo unspecified)
range 3

Just checking, what class would you give CCOc1ccccc1C(=O)N(C)CC(=O)Nc1ccc(OC)cc1 here?
range 3

Given CCOC(=O)c1c(C)[nH]c(C)c1C(=O)COC(=O)[C@@H](NC(=O)c1ccco1)C(C)C , name the class its solubility kinetic places it in.
range 3

Any idea which band Cc1cc(N(C)Cc2ccccc2)nc2cc(O)ccc12 is in?
range 2

Form field 'band' for COc1ccc(CNc2ccc3c(c2)ncn3C)cc1OC
range 2

Would you mind sorting Cc1cc(C(c2cc(C)c(N)c(C)c2)c2ccco2)cc(C)c1N into the appropriate category?
range 2

Class for O=S(=O)(c1ccccc1)c1nc(NC2CC2)sc1Cl ?
range 3

Which solubility kinetic band matches O=C(Nc1cccc2cccnc12)c1ccccc1Br ?
range 1

More entries:
// return the class label for O=C(Nc1cccc(O)c1)c1ccccc1[N+](=O)[O-]
range 2

Please let me know in which category the item O=C(CCn1cnc2ccccc2c1=O)Nc1cccc(Cl)c1Cl belongs.
range 1

Band for the recorded solubility kinetic of CC(=O)O.CC(C)CC1NC(C(=O)O)Cc2c1[nH]c1ccccc21 (stereo unspecified) ?
range 3

Input CC1Cc2ccccc2N1S(=O)(=O)c1cnc(Cl)c(Cl)c1 (stereo unspecified) ; output its category
range 1

Sort into band: Cc1ccc(S(=O)(=O)Nc2ccc(Nc3ccccc3)cc2)cc1
range 1

Please indicate the class for CC1CCCC(NC(=O)COC(=O)COc2ccc(C#N)cc2)C1C (stereo unspecified) based on its solubility kinetic.
range 3

Category of O=C(COc1cccc(C(F)(F)F)c1)Nc1cccnc1 :
range 3

Which of the defined bands does the recorded solubility kinetic of Brc1ccc(CNCC2CCCO2)cc1 (stereo unspecified) sit within?
range 2

Please let me know in which category the item COc1ccccc1CN1CCCC(CNC(=O)c2cccc3ccccc23)C1 (stereo unspecified) belongs.
range 3

The entry to classify is COc1ccccc1OCCNC(=O)C(=O)c1c[nH]c2ccccc12 ; which class holds it?
range 2

Which band does COc1ccc(CNc2nc3ccccc3s2)cc1OC fall in?
range 1
